Measured values drawn from ChEMBL document CHEMBL1201862 for this set.

system: SN12C; assay: NCI tumour cell line growth inhibition, 48 h
Activity calls are given as the source filed them. No stated cut-off is given here; in the data, active = GI50 up to about 1.1 µM and inactive = higher.
Possible outcomes: Y = active, N = inactive

- molecule: "C=C(CN(C)C)C(=O)c1ccc(Oc2ccccc2)cc1"
  groupLabel: "N"
- molecule: "C=C1CC2OC2(C(=O)O[C@H]2CCC3[C@@H]4CCC5=CC(=O)CC[C@]5(C)C4CC[C@@]32C)C1=O (some centres undefined)"
  groupLabel: "N"
- molecule: "CCCc1cn2c(/C=N/NC(=N)N)c(-c3cccc([N+](=O)[O-])c3)nc2s1"
  groupLabel: "N"
- molecule: "Cc1cccc2c(N)c3cccc(C(=O)NCCN(C)C)c3nc12"
  groupLabel: "Y"
- molecule: "CC(=O)c1c(P(=O)(OC(C)C)OC(C)C)nn(-c2ccc([N+](=O)[O-])cc2)c1C"
  groupLabel: "N"
- molecule: "CC(=O)NC1(C)C(C)C2CC1C(C)C2(C)C (centres undefined)"
  groupLabel: "N"
- molecule: "CC1CC(c2cccc3c2OCO3)=Nc2ccccc2S1 (centres undefined)"
  groupLabel: "N"
- molecule: "CO[C@@H]1[C@H](OC(=O)NC(=O)CCl)CC[C@]2(CO2)[C@H]1[C@@]1(C)O[C@@H]1CC=C(C)C"
  groupLabel: "N"
- molecule: "CCN(CCCl)c1cc(CN(C)C)cc(NC(=O)c2ccc(C(=O)Nc3ccccc3)cc2)c1"
  groupLabel: "Y"
- molecule: "CC(=O)C(=[N+]=[N-])C(=O)N(C)CCC#N"
  groupLabel: "N"
- molecule: "CCOC(=O)c1c(NC(=O)c2cccs2)sc2c1CCCC2"
  groupLabel: "N"
- molecule: "COc1cc(C2c3cc4c(cc3CC3COC(=O)N32)OCO4)cc(OC)c1OC (centres undefined)"
  groupLabel: "N"
- molecule: "CSc1nc(NC2OC(CO)C(O)C(O)C2O)c(N)c(=O)[nH]1 (centres undefined)"
  groupLabel: "N"
- molecule: "Nc1nc2c(C(=O)O)c3ccc([N+](=O)[O-])cc3c(=O)n2c2ccccc12"
  groupLabel: "N"
- molecule: "COC(=O)c1ccc(CCC2=CC(=O)C(Br)=CC2=O)cc1"
  groupLabel: "N"
- molecule: "CC1(C)C2CCC1(C)C(OC(=O)/C=C/C(=O)OC1CC3CCC1(C)C3(C)C)C2 (centres undefined)"
  groupLabel: "N"
- molecule: "O=C1C(=Cc2ccco2)C(=O)C2CCCCC12 (centres undefined)"
  groupLabel: "N"
- molecule: "COc1ccc(-n2cnc3c(N)nc(N)nc32)cc1"
  groupLabel: "N"
- molecule: "CC[P+](C)(C)CC"
  groupLabel: "N"
